- assay system: T1, human bow-Ang-2 tetrameric construct (hBA2) (human)
- T1 construct: also called human BA2; hBA2-hIgG1
- T1 sequence (chain, as listed by the source limits assumed): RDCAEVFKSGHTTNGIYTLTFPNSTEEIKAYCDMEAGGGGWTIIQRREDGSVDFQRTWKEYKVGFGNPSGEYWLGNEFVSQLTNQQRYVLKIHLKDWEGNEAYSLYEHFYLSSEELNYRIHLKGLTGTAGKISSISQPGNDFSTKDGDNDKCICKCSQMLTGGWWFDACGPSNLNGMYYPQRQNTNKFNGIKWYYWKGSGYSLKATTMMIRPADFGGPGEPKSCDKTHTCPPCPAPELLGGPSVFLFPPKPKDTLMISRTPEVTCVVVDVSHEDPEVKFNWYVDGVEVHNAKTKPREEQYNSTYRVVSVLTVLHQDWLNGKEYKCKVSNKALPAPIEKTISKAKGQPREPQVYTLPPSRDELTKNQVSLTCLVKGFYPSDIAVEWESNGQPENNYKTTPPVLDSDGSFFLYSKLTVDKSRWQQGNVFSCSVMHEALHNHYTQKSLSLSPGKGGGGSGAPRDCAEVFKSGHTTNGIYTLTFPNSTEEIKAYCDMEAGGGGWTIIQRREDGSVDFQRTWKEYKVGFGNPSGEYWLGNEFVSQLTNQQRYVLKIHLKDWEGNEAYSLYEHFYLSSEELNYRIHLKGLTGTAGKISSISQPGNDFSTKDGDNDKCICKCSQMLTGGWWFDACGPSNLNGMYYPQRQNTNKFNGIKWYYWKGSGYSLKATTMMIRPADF
- assay details: SPR, captured Ab
pKd: −log10 of the molar value.
measure name: pKd

- H1H749N (antibody, V domains shown) VH: QVQLVESGGGVVQPGRSLRLSCAASGFTFSSYGMHWVRQAPGKGLEWVAVIWYDEFNKYYADSVKGRFTISRDNSKNTLYLQMNSLRAEDTAVYYCARERESGYSYGFDYWGQGTLVTVSS VL: EIVMTQSPATLSVSPGERATLSCRAGQSVSSNLAWYQQKPGQAPRLLIYGASTRATGIPARFSGSGSGTEFTLTISSLQSEDFAVYYCQQYNNWWTFGQGTKVEIK: 10.49
- H1H693P (antibody, V domains shown) VH: EVQLVESGGGLVQPGESLRLSCAASGFTFSSYAMSWVRQGPGKGLEWVSSISGSGGTTYYADSVEGRFTISRDNSKNTLYLHMNSLRAEDTAVYYCAKDFLDYSTYLAFDLWGQGTMVTVSS VL: DIQMTQSPSSVSASVGDRVTITCRASQGISSWLAWYQQKPGKAPKLLIYAASSLQSGVPSRFSGSGSGTDFTLTISSLQPEDFATYYCQQANSFPRTFGQGTKVEIK: 9.52
- H1H742N (antibody, V domains shown) VH: DVQLLESGGDLVQPGGSLRLSCEASGFTFRNYVMIWVRQAPGKGLEWVSGISNSGGTTHYTDSVKGRFTISRDNSKNTLYLQINSLRAEDTAVYYCAKGYLDTSLIEGNWFDPWGQGTLVTVSS VL: NIVMTQSPLSLPVTPGEPASISCRSSQSLLHSNGFNYLNWFLQKPGQSPQLLIYLGSNRASGVPDKFSGSGSGTDFTLNINRVEAEDVGIYFCMQTLQTPLTFGGGTKVEIK: 10.14
- H1H704P (antibody, V domains shown) VH: QVQLVESGGDVVQPGRSLRLSCAASGFTFSSYGMHWVRQAPGKGLEWVAIIWYDGSNKYYADSVKGRFTISRDNSKNTLYLQMNSLRVEDTAVYSCARDFSISSRHFDYWGQGTLVTVSS VL: DIQMTQSPSSLSASVGDRVTITCRASQAINNYLAWFQQKPGKAPKSLIYATSNLQSGVPSQFSGSGSGTDYTLTISSLQPEDFATYYCQQYYIYPITFGQGTRLEIK: 10.03
- H1H728N (antibody, V domains shown) VH: EVQLVESGGDLVQPGGSLRLSCTASGFTFSKYWMTWVRQAPGRGLEWVANIKEDGNEKYFLDSVKGRFTISRDNAKDLLFLQMNSLRGEDTAVYYCVRDRGIEVAGPFDYWGQGTLVTVSS VL: DIQMTQSPSTLSASVGDRVTVTCRASQTIINWLAWYQQKPGKAPKLLISKASSLESGVPSRFSGSGSGTEFTLTISSLQPDDFATYYCQQYNRYWTFGQGTMVEIK: 10.38
